# System: IMP-1 producing Pseudomonas aeruginosa strain PAO1/pMS363
# Type: cell-based
# test-settings: no inhibitor, in µg/mL
parameter-measured: MIC of β-lactam drugs, β-lactam alone
One number for each entry.

[
  {
    "sample-smiles": "CO/N=C(\\C(=O)N[C@@H]1C(=O)N2C(C(=O)O)=C(CSc3nc(=O)c(=O)[nH]n3C)CS[C@H]12)c1csc(N)n1",
    "MIC of β-lactam drugs, β-lactam alone": 4096
  }
]

Turning now to a further record.
Input: # get_value(readout= MIC of β-lactam drugs, β-lactam alone, system= IMP-1 producing Pseudomonas aeruginosa strain PAO1/pMS363) for "C[C@@H](O)[C@H]1C(=O)N2C(C(=O)O)=C(S[C@H]3C[C@@H](C(=O)N4CC[C@H](NC(=O)CNC(=N)N)C4)N(C)C3)[C@H](C)[C@H]12"
Output: 256

---

# system-tested: IMP-1 (Serratia marcescens, UniProt P52699)
# Construct: The total length of IMP-1 as a metallo-β-lactamase was amplified by PCR; His tag (C); made in house; host or cells: E. coli DH5α, pTrcHis2 TOPO vector, periplasmic fraction
# Sequence (P52699 19-246 limits assumed): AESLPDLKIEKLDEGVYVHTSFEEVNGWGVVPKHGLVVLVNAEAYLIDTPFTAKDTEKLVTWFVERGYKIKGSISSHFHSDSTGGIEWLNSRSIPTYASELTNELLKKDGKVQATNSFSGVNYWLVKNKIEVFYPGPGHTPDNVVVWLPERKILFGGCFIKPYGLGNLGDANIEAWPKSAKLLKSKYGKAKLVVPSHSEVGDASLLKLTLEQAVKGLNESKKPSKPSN
# measurement-protocol: biochemical
# test-settings: nitrocefin 100 μM, IMP-1 1 nM, ZnSO4 100 μM, 50 mM HEPES pH 7.5, room temperature 20 min; read-out: IC50 of each inhibitor against IMP-1
parameter-measured: IC50
State the value, then name its unit.

[
  {
    "molecule": "CC(C)/C(C(=O)O)=C(\\Cc1ccc(C(N)=O)cc1)C(=O)O [Example 72, disodium]",
    "IC50": "1400 nM"
  }
]

// input: 2 molecules below; output: IC50 for each
1. CC(C)/C(C(=O)O)=C(\Cc1ccc(OCCN)cc1)C(=O)O [Example 92, disodium]
2. CC/C(C(=O)O)=C(\SC(C)C)C(=O)O [Example 66, disodium]

Output:
980 nM
1200 nM
